# System: P. falciparum 3D7 growth, pLDH absorbance
# assay-procedure: blood-stage malaria parasite growth potency – strain 3D7, dose response (AID 2305)
IC50 strictly under 0.8 µM means yes (1); at 0.8 µM or over means no (0).

| compound | assigned-category |
| --- | --- |
| CN(C)CCCNC(=O)c1ccccc1Sc1ccccc1C#N | no (0) |
| O=c1cc(NCCCNCc2ccc3c(c2)OC(F)(F)O3)[nH]c2ccccc12 | yes (1) |
| Cc1cc(NCCc2cccc(F)c2)nc(/N=C(\N)Nc2cccc(C(F)(F)F)c2)n1 | yes (1) |
| Cc1ccc(N)cc1-c1nc(NC2CC(C)(C)NC(C)(C)C2)nc2c1ccc(=O)n2-c1c(F)cccc1F | no (0) |
| Cc1cccc2[nH]c(-c3ccc(-c4ccc(CN5CCC(CCN6CCCCC6)CC5)cc4)cc3)nc12 | yes (1) |
| CN1C(=O)C(=O)N(CCCCCON=C(N)N)C1=S | yes (1) |
| Cn1nc(-c2cccc(CNC3CCc4ccccc43)c2)c2cnc(NCCCN3CCCC3)nc21 (centres undefined) | no (0) |
| CC(Cc1ccc(OCCN2CCN(c3cccc(C(F)(F)F)c3)CC2)cc1)NCC(O)c1cccc(C(F)(F)F)c1 (centres undefined) | yes (1) |

###

Recorded pIC50 values for a group of molecules are listed next.
# System: P. falciparum 3D7 growth, pLDH absorbance
# assay-procedure: blood-stage malaria parasite growth potency – strain 3D7, dose response (AID 2305)
pIC50: −log10 of the molar value.
measured-endpoint: pIC50

| molecule | value-measured |
| --- | --- |
| COc1ccc2nc(-c3ccccc3)cc(NN=Cc3ccc([N+](=O)[O-])cc3)c2c1 | 6.82 |
| O=C(C=Cc1ccc(Cl)c(Cl)c1)NCCCCCN1CCC(CCCNS(=O)(=O)c2cccc(C(F)(F)F)c2)CC1 | 6.32 |
| O=C(NCCCCCN1CCC(c2c[nH]c3ccccc23)CC1)c1ccc(-c2ccccc2)nc1 | 5.99 |
| COc1cc(C=Cc2ccc3ccccc3n2)cc(Br)c1OCC(=O)N(C)C | 5.96 |
| Cc1nc(-c2cccc(Nc3ccnc4cc(-c5nccs5)ccc34)c2)no1 | 6.49 |
| CC(=NNC(=S)NC(C)(C)C)c1ccccn1 | 6.80 |
| c1cncc(Oc2ccc(Nc3ccnc4cc(-c5cccc(CN6CCCCC6)c5)ccc34)cc2)c1 | 6.92 |
| CC(C)(CNC(=O)[C@@H]1CCCN(Cc2ccc(Cl)cc2)C1)c1nc(-c2ccc(Cl)c(O)c2)c(-c2ccncc2)[nH]1 | 6.03 |
| COc1cc(C=CC(=O)NC2CCC(CN3CCC(c4c[nH]c5ccccc45)CC3)CC2)cc(OC)c1 (centres undefined) | 6.09 |

###

# System: P. falciparum 3D7 growth, pLDH absorbance
# assay-procedure: blood-stage malaria parasite growth potency – strain 3D7, dose response (AID 2305)
pIC50: −log10 of the molar value.
pIC50 listing for selected compounds.

| compound | target-or-system | pIC50 |
| --- | --- | --- |
| O=C(OCc1ccccn1)c1nc2ccccc2[nH]1 | P. falciparum 3D7 growth, pLDH absorbance | 6.10 |
| NC(N)=Nc1nc(-c2ccc(NC(=O)Nc3cccc(-c4csc(N=C(N)N)n4)c3)cc2)cs1 | P. falciparum 3D7 growth, pLDH absorbance | 6.00 |
| Cc1cc(C)cc(OCC(O)CN(Cc2cc(Cl)cc(Cl)c2)C(=O)Nc2ccc(Cl)cc2)c1 (configuration not stated) | P. falciparum 3D7 growth, pLDH absorbance | 6.09 |
| CC(C)CCN1CCCN(Cc2ccc(C(=O)NCc3ccc(Cl)cc3)cc2)CC1 | P. falciparum 3D7 growth, pLDH absorbance | 6.00 |
| CCc1c(CCNCCCCCCNCc2ccc3c(c2CC)OCO3)ccc(OC)c1OC | P. falciparum 3D7 growth, pLDH absorbance | 6.60 |
| Oc1cc(Nc2ccnc3cc(-c4ccc(CN5CCCCC5)o4)c(Cl)cc23)c(Cl)cc1F | P. falciparum 3D7 growth, pLDH absorbance | 5.90 |
| Cc1nc(C)c(CC(=O)Nc2cccc(-c3cccc(-c4nc5ccc(C(F)(F)F)cc5[nH]4)c3)c2)s1 | P. falciparum 3D7 growth, pLDH absorbance | 6.08 |
| CO/C(=C\C=C\c1cc2cc(Cl)c(Cl)cc2[nH]1)C(=O)NCCCN1CCN(Cc2ccccc2)CC1 | P. falciparum 3D7 growth, pLDH absorbance | 6.04 |
| c1ccc(Oc2ccc(Nc3ccnc4cc(-c5csc(CN6CCCCC6)n5)ccc34)cc2)nc1 | P. falciparum 3D7 growth, pLDH absorbance | 6.24 |
| CC(=O)Nc1nc(C(=O)Nc2ccc(-c3cccc(-c4nc5ccccc5[nH]4)c3)cc2)cs1 | P. falciparum 3D7 growth, pLDH absorbance | 6.26 |
| CS(=O)(=O)c1ccc(-c2nc(NCC3CCCCC3)cc(C(F)(F)F)n2)cc1 | P. falciparum 3D7 growth, pLDH absorbance | 6.17 |
| O=S(=O)(Nc1cccc(CCN2CCC(N3CCCCC3)CC2)c1)c1ccc(Cl)cc1 | P. falciparum 3D7 growth, pLDH absorbance | 6.04 |
| O=C1NC(=S)NC1=CC=Cc1ccc([N+](=O)[O-])o1 | P. falciparum 3D7 growth, pLDH absorbance | 5.97 |
| COc1cc(Cc2cnc(N)nc2N)ccc1OCc1ccc(-c2csnn2)cc1 | P. falciparum 3D7 growth, pLDH absorbance | 6.20 |
| O=C(/C=C/c1ccc(Cl)c(Cl)c1)NCCCCCN1CCC(CCNC(=O)/C=C/c2cc(C(F)(F)F)ccc2F)CC1 | P. falciparum 3D7 growth, pLDH absorbance | 6.11 |
| CCCCOC(=O)C1=C(C)NC2=C(C(=O)CC(c3ccc(OC)c(OC)c3)C2)C1c1ccc(O)cc1 (configuration not stated) | P. falciparum 3D7 growth, pLDH absorbance | 6.08 |
| CCCC(=O)Nc1ccc(OCCCCN(Cc2ccccc2C(F)(F)F)c2ccc(C(F)(F)F)c(C#N)c2)cc1 | P. falciparum 3D7 growth, pLDH absorbance | 6.01 |
| N=C(N)c1ccc2[nH]c(-c3cc4cc(C(=N)N)ccc4o3)cc2c1 | P. falciparum 3D7 growth, pLDH absorbance | 6.74 |
| CCN(CC)CCN(Cc1ccc(-c2ccc(C(F)(F)F)cc2)cc1)C(=O)Cn1c(CCc2cccc(F)c2F)nc(=O)c2cc(F)ccc21 | P. falciparum 3D7 growth, pLDH absorbance | 6.08 |
| CCCCCN1CCCC(NS(=O)(=O)c2cccc(C(=O)Nc3cccc(C(F)(F)F)c3)c2)C1 (configuration not stated) | P. falciparum 3D7 growth, pLDH absorbance | 5.97 |
| Cc1cccc2[nH]c(-c3cccc(-c4ccc(CN5CCC(C(N)=O)CC5)cc4)c3)nc12 | P. falciparum 3D7 growth, pLDH absorbance | 6.07 |
| Cc1nc2nc(N)nc(N)c2c(C)c1Cc1ccccc1Cl | P. falciparum 3D7 growth, pLDH absorbance | 6.96 |
| CN1CCC(NCc2cccc(-c3cccc(-c4nc5ccc(C(F)(F)F)cc5[nH]4)c3)c2)CC1 | P. falciparum 3D7 growth, pLDH absorbance | 6.85 |
| CCN(CC)CCn1c2ccccc2c2ccc(C(=O)Nc3ccc4sc(C)nc4c3)cc21 | P. falciparum 3D7 growth, pLDH absorbance | 5.97 |
| COc1ccc2nc3cc(Cl)ccc3c(Nc3ccc(Oc4ccc(Nc5c6ccc(Cl)cc6nc6ccc(OC)cc56)cc4)cc3)c2c1 | P. falciparum 3D7 growth, pLDH absorbance | 6.07 |
| COc1ccc(NC(=O)NC2CCN(c3ccnc4ccccc34)C2)cc1 (configuration not stated) | P. falciparum 3D7 growth, pLDH absorbance | 6.06 |
| Cc1[nH]c(C)c(-c2ccc(-c3ccccc3F)nc2)c(=O)c1Cl | P. falciparum 3D7 growth, pLDH absorbance | 6.60 |
| COCCn1c(-c2cccc(Cl)c2)nn(-c2ccc([N+](=O)[O-])cc2Cl)c1=S | P. falciparum 3D7 growth, pLDH absorbance | 6.13 |
| Fc1ccc(N(c2nc(-c3cc(F)cc(C(F)(F)F)c3)cs2)C2CCNCC2)cc1 | P. falciparum 3D7 growth, pLDH absorbance | 6.02 |
| COc1cc2nc(Nc3ccc4c(cnn4Cc4ccccc4)c3)nc(Nc3ccc4c(cnn4Cc4ccccc4)c3)c2cc1OC | P. falciparum 3D7 growth, pLDH absorbance | 6.72 |
| CCNc1cc(C(=O)N[C@@H](Cc2ccccc2)[C@H](O)CN[C@H]2C[C@@H]3CC[C@H]2C3)cc(N2CCCCS2(=O)=O)c1 | P. falciparum 3D7 growth, pLDH absorbance | 6.62 |
| O=C(/C=C/c1ccc(Cl)c(Cl)c1)N1CCC(CN2CCC(c3nc4ccccc4n3CCCO)CC2)CC1 | P. falciparum 3D7 growth, pLDH absorbance | 6.08 |
| CCNc1cc(C(=O)N[C@@H](Cc2ccccc2)[C@H](O)CN[C@@H]2CCc3ccccc32)cc(N2CCCCS2(=O)=O)c1 | P. falciparum 3D7 growth, pLDH absorbance | 6.26 |
| O=S(=O)(Nc1cccc(CCN2CCCCC2CCN2CCCC2)c1)c1ccc2ccccc2c1 (configuration not stated) | P. falciparum 3D7 growth, pLDH absorbance | 5.97 |
| CCOc1cc2c(cc1S(=O)(=O)c1ccc(COc3ccc(C(F)(F)F)cc3)cc1)CCN(C)CC2 | P. falciparum 3D7 growth, pLDH absorbance | 5.99 |
| CCCC(C)NC(=O)C(N)Cc1cccc(I)c1 (configuration not stated) | P. falciparum 3D7 growth, pLDH absorbance | 6.01 |
| CN(C)Cc1ccc2nc(-c3cccc(Cc4cc(Cl)ccc4OCc4ccc(Cl)cc4F)n3)[nH]c2c1 | P. falciparum 3D7 growth, pLDH absorbance | 5.95 |
